# System: A375 Sensitive cells
# assay-info: Viability test, trypan blue exclusion, A375 Sensitive cells
# Format: cell-based, human
# settings: Homo sapiens, A-375; 10 μM, 24 h; viable cells as percentage of DMSO control; read-out: Viab A375 10 μM/ 24 h
Reported viability at 10 µM values are given for each entry in this list.
endpoint: viability at 10 µM

>  <molecule>
N=C(NC(=N)c1cccnc1)Nc1nc2ccccc2s1 [MTF 252]

>  <experimental-target>
A375 Sensitive cells

>  <endpoint>
viability at 10 µM

>  <reported-result>
12.9%

$$$$
>  <molecule>
Nc1nc(Nc2ccccc2SSc2ccccc2Nc2nc(N)nc(-c3ccncc3)n2)nc(-c2ccncc2)n1 [MTF 329]

>  <experimental-target>
A375 Sensitive cells

>  <endpoint>
viability at 10 µM

>  <reported-result>
74.2%

$$$$
>  <molecule>
Nc1nc(Nc2ccccc2SSc2ccccc2Nc2nc(N)nc(-c3cc4c(cc3Br)OCO4)n2)nc(-c2cc3c(cc2Br)OCO3)n1 [MTF 458]

>  <experimental-target>
A375 Sensitive cells

>  <endpoint>
viability at 10 µM

>  <reported-result>
46.5%

$$$$
>  <molecule>
N=C(NC(=N)c1cnccn1)Nc1nc2ccccc2s1 [MTF 345]

>  <experimental-target>
A375 Sensitive cells

>  <endpoint>
viability at 10 µM

>  <reported-result>
17.1%

$$$$
>  <molecule>
N=C(NC(=N)c1cccnc1)Nc1nc(-c2ccccc2)cs1 [MTF 273]

>  <experimental-target>
A375 Sensitive cells

>  <endpoint>
viability at 10 µM

>  <reported-result>
100%

$$$$
>  <molecule>
Cc1nc(NC(=N)NC(=N)c2ccccc2Cl)sc1C [MTF 300]

>  <experimental-target>
A375 Sensitive cells

>  <endpoint>
viability at 10 µM

>  <reported-result>
50.8%

$$$$
>  <molecule>
Cc1nc(NC(=N)NC(=N)c2ccc(Cl)cc2)sc1C [MTF 302]

>  <experimental-target>
A375 Sensitive cells

>  <endpoint>
viability at 10 µM

>  <reported-result>
94.8%

$$$$
>  <molecule>
COc1ccc(C(=N)NC(=N)Nc2nc3ccccc3s2)cc1 [MTF 254]

>  <experimental-target>
A375 Sensitive cells

>  <endpoint>
viability at 10 µM

>  <reported-result>
100%

$$$$
>  <molecule>
N#Cc1cccc(-c2nc(N)nc(Nc3ccccc3SSc3ccccc3Nc3nc(N)nc(-c4cccc(C#N)c4)n3)n2)c1 [MTF 325]

>  <experimental-target>
A375 Sensitive cells

>  <endpoint>
viability at 10 µM

>  <reported-result>
71%

$$$$
